Target: Cytochrome P450 2C9 (Homo sapiens) (UniProt P11712)
Sequence (P11712 whole entry, looked up): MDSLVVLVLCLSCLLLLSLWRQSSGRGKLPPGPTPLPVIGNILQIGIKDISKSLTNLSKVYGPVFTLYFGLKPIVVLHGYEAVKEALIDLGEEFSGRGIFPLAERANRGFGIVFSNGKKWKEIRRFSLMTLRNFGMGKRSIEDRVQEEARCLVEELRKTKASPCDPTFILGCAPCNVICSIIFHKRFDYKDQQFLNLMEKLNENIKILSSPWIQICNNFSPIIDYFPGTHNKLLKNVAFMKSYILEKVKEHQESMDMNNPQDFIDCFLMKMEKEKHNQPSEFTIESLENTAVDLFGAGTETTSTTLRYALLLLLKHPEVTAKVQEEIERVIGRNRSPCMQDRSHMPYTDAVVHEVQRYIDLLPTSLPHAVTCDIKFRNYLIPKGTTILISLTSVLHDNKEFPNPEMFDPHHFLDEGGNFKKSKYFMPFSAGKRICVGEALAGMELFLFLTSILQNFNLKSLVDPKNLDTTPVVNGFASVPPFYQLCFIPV
Assay: blockers of cytochrome P450 2C9 activity – biochemical, luminescence, ADME assay, primary screen (AID 777)
Conditions: CYP2C9 Supersomes, luciferin-H conversion, at 5 µM, stronger effect = higher value
Screen size: about 96,000 compounds; about 19,000 (20%) were called active. A selection follows.
Give measured inhibition for each item. Keep answers brief.
Numbers only, in %.

Example molecules with recorded inhibition:
INSERT INTO measurements (molecule, unit_abbrev, test_result) VALUES
  ('O=C(CN1CCN(c2ccccn2)CC1)NCc1cccs1', '%', 29.1),
  ('Cc1cc(C)c2c(c1)c(C)cc1nnc(SCC(=O)NCc3ccco3)n12', '%', -92),
  ('CCS(=O)(=O)Nc1cc(C(=O)OC)ccc1C(=O)OC', '%', 37.5),
  ('Cc1nc2nc(SCC(=O)NCc3ccco3)nn2c(C)c1Cc1ccccc1', '%', 44.9),
  ('COC(=O)Cn1nc(-c2ccccc2)c2cc(Cl)ccc21', '%', 25.2),
  ('Cn1c(=O)cc(SCC(=O)N2CCCC2)c2cc(Cl)ccc21', '%', 0.1),
  ('CNC(=O)c1nnc(Cc2ccc(Cl)cc2)o1', '%', 5),
  ('CCOC(=O)c1cnc(SCC(=O)NCc2ccco2)nc1N', '%', 60.7);

Could you tell me inhibition for each of these molecules? They are listed below.
1. O=C(Nc1ccccc1Cl)O/N=C(/c1ccccc1)c1ccccn1
2. Cc1cc(C)nc(NC(=O)Nc2ccccc2C(F)(F)F)n1
3. CCOC(=O)c1cnc(SCC(=O)Nc2cccc(OC)c2)nc1N
4. CC(C)C(=O)NC(=S)Nc1ccccc1F
5. O=C1C(=O)N(c2ccccc2)c2ccccc21
6. Cc1[nH]c(=O)c(C(=O)/C=C/c2ccccc2)c2c1CCCC2

[22.2, -193, 30.6, 20.1, 4.1, -14.6]

Could you tell me inhibition for each of these molecules? They are listed below.
1. CCn1c(SCC(=O)NCc2ccco2)nnc1-c1ccc(N)cc1
2. CCOc1ccccc1-n1c(SCC(=O)NCc2ccco2)nnc1-c1ccncc1
3. COc1cccc(CN2C(=O)CCC2(C)C(=O)NC2CCCCCC2)c1 (centres undefined)
4. O=C(CN1C(=O)CSc2ncccc21)N1CCOCC1

1. -11.3
2. 54.7
3. -58.7
4. 41.4

Could you tell me inhibition for each of these molecules? They are listed below.
1. COc1ccc(-c2nc(CCNC(=O)c3ccc(Br)o3)cs2)cc1
2. CC1=C(C(=O)Nc2ccc(Cl)cc2)C(c2ccco2)NC(=O)N1 (centres undefined)
3. Cc1cccc(N2CCN(Cc3c(C)n(C)n(-c4ccccc4)c3=O)CC2)c1C

1. 62.2
2. 0.4
3. -16.5

###

Target: Cytochrome P450 2C9 (Homo sapiens) (UniProt P11712)
Assay: blockers of cytochrome P450 2C9 activity – biochemical, luminescence, ADME assay, primary screen (AID 777)
Conditions: CYP2C9 Supersomes, luciferin-H conversion, at 5 µM, stronger effect = higher value
Hit rate of the full screen: of about 96,000 compounds, about 19,000 (20%) were called active. These entries were drawn from the full list.
Readout kind: inhibition (%)
Answers are plain numbers, in %.

INSERT INTO results (compound, target_of_assay, readout_kind, test_result) VALUES
  ('CCOC(=O)c1c(-c2cccc(C)c2)csc1NC(=O)c1c(-c2ccccc2)noc1C', 'Cytochrome P450 2C9 (Homo sapiens) (UniProt P11712)', 'inhibition', 26.8),
  ('COC(=O)c1ccc(Cc2ccccc2)o1', 'Cytochrome P450 2C9 (Homo sapiens) (UniProt P11712)', 'inhibition', -29.6);

Could you tell me inhibition for each of these compounds? They are listed below.
1. O=C(NCCCCCCNC(=O)NCc1ccco1)NCc1ccco1
2. Cc1c(-c2ccccc2)nc(N)c(C#N)c1-c1cccs1
3. O=C(NCc1cccs1)c1ccc2c(c1)ncn2C1CCCC1
4. COC(=O)c1ccc(CN(c2ccccc2OC)S(=O)(=O)c2cccs2)o1
5. COc1ccccc1N1CCN(CCCCOc2ccc(F)cc2)CC1
6. O=C(O)CSCc1ccc(C(=O)O)o1
7. Cc1ccc(C(=O)OC2=CC(=O)CC(C)(C)C2)cc1
8. CC1CC(C)CN(C(=O)CSc2nnc(CSc3ncccn3)n2C)C1 (stereo not drawn)

-11.1
29.3
25.4
94.6
12
13.1
28.3
-5.7

###

Target: Cytochrome P450 2C9 (Homo sapiens) (UniProt P11712)
Assay: blockers of cytochrome P450 2C9 activity – biochemical, luminescence, ADME assay, primary screen (AID 777)
Conditions: CYP2C9 Supersomes, luciferin-H conversion, at 5 µM, stronger effect = higher value
The campaign covered roughly 96,000 compounds. About 19,000 (20%) were called active. Not all results are given here.
Tick condition met if inhibition is 10% or greater. Tick condition not met if inhibition is less than 10%.

See these solved cases before continuing.
INSERT INTO measurements (mol, discrete_label) VALUES
  ('Cc1[nH]n(-c2cccc(Cl)c2)c(=O)c1-c1ccc(Cl)cc1', 'condition not met'),
  ('C=C(C)C(=O)Nc1cccc(C(C)=O)c1', 'condition not met'),
  ('Cc1ccc(S/C(=N\S(=O)(=O)c2ccc(Cl)cc2)c2ccccc2)cc1', 'condition met'),
  ('COc1cc(NS(=O)(=O)c2ccc(N=Cc3c(C)[nH]n(-c4ccccc4)c3=O)cc2)nc(OC)n1', 'condition not met');

Assess whether reported inhibition for `COc1ccc(NC(=O)c2ccc(OC)cc2)cc1` sits at 10% or higher.
condition not met

Assess whether reported inhibition for `CCOc1cccc(C(=O)Nc2cccnc2)c1` sits at 10% or higher.
condition not met

Assess whether reported inhibition for `COc1cc(N2CCCC2)c(OC)cc1/C=C(/C#N)c1cccc(Br)c1` sits at 10% or higher.
condition met

Assess whether reported inhibition for `OCCN1CCOCCOCCN(CCO)CCN(CCO)CC1` sits at 10% or higher.
condition met

Assess whether reported inhibition for `Cc1[nH]n(-c2cccc(Cl)c2)c(=O)c1/C=N/n1c(C)nc2ccccc2c1=O` sits at 10% or higher.
condition met

Assess whether reported inhibition for `CCCCOc1ccc(C(=O)NCc2ccncc2)cc1` sits at 10% or higher.
condition met

Assess whether reported inhibition for `Cc1cc(NC(=O)Nc2ccccc2)n(-c2ccccc2)n1` sits at 10% or higher.
condition met

###

Molecular target: Cytochrome P450 2C9 (Homo sapiens)
Experiment: blockers of cytochrome P450 2C9 activity – biochemical, luminescence, ADME assay, primary screen (AID 777)
Settings: CYP2C9 Supersomes, luciferin-H conversion, at 5 µM, stronger effect = higher value
In all, about 96,000 compounds went through this assay and about 19,000 (20%) were called active. These entries were drawn from the full list.
Readout kind: inhibition (%)
Numbers only, in %.

Example molecules with recorded inhibition:
INSERT INTO assay_data (molecule, test_result) VALUES
  ('c1nc(COc2nsnc2N2CCOCC2)cs1', 4.4),
  ('Cc1cc(C)n(-c2c(F)c(F)c(COC(=O)c3ccccc3)c(F)c2F)n1', 2.6),
  ('CCOC(=O)C1=C(c2ccccc2)O/C(=C(/C(=O)OC)C(F)(F)F)S1', 20.8),
  ('CCC1=C/C(=C\c2ccc3c(c2)OCO3)C(=O)S1', 16.7),
  ('O=C(Nc1ccc2c(c1)OCCO2)C(c1ccc(F)cc1)N1CCCCC1 (stereo unspecified)', 67.1),
  ('COc1ccc(-n2c(SCC(=O)Nc3ccc4c(c3)OCO4)nnc2C(C)N2CCCCC2)cc1 (stereo unspecified)', 20.2);

Could you tell me inhibition for each of these molecules? They are listed below.
1. Fc1ccc(OCc2nn3c(Cn4nnc5ccccc54)nnc3s2)cc1
2. Cn1c(=O)n(C)c(=O)n(CC(=O)N2CCCCC2)c1=O
3. O=C(NC(=O)c1ccccc1)NC(=O)c1ccccc1

[23.6, -13.7, 12.8]

Could you tell me inhibition for each of these molecules? They are listed below.
1. O=C(O)CN1C(=O)CC(Cc2ccccc2)C1=O (stereo unspecified)
2. O=C(OCC(O)C(O)COC(=O)c1ccccc1)c1ccccc1 (stereo unspecified)

7.4
57.1

###

Target: Cytochrome P450 2C9 (Homo sapiens) (UniProt P11712)
Test: blockers of cytochrome P450 2C9 activity – biochemical, luminescence, ADME assay, primary screen (AID 777)
Settings: CYP2C9 Supersomes, luciferin-H conversion, at 5 µM
The campaign covered roughly 96,000 compounds. About 19,000 (20%) were called active.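 How the source made its calls: active means blocking of liver enzyme CYP2C9 beyond about 50% at 5 µM (limit read from the data); inactive means the rest.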 Not all results are given here.
Assign a class; possible classes are true (active), false (inactive)

See these solved cases before continuing.
INSERT INTO assay_data (mol, target_of_assay, discrete_label) VALUES
  ('O=C(CN1CCN(C(=O)c2cccc(F)c2)CC1)Nc1ccccc1F', 'Cytochrome P450 2C9 (Homo sapiens) (UniProt P11712)', 'false'),
  ('Cc1cccc(C(=O)N2CCCN(C(=O)c3cccc(C)c3)CC2)c1', 'Cytochrome P450 2C9 (Homo sapiens) (UniProt P11712)', 'true'),
  ('Cc1ccc(C(=O)N2CCCCCC2)cc1Br', 'Cytochrome P450 2C9 (Homo sapiens) (UniProt P11712)', 'false');

Assay outcome for `Cc1ccccc1CN1CCN(C(=O)c2cccc(F)c2)CC1` : what was it?
true

Assay outcome for `O=C(c1ccccc1)N1CCN(C(=O)N2CCCCC2)CC1` : what was it?
false

Assay outcome for `Cc1ccccc1CS(=O)(=O)CC1(O)CCN(C(=O)c2cccc(C(F)(F)F)c2)CC1` : what was it?
false
